Tested on: HONE-1 cell line
EXPERIMENTAL_PROTOCOL: Cell growth inhibition assay on human cancer lines, parental HONE-1
Type: cell-based
STATED_CONDITIONS: NPC, read-out: Cytotoxicity against HONE-1

[
  {
    "COMPOUND": "N.N.[Cl][Pt][Cl] [Cisplatin]",
    "MEASURE_UNIT": "nM",
    "IC50": 3000
  }
]
